Source listed as paper PMC8019873.

tested on: A2780, A549, HeLa, and HCT116 human cancer cell lines; test: AlamarBlue cytotoxic assay, range over four cancer cell lines; format: cell-based; conditions: read-out: Cytotoxicity IC50 range against four cancer cell lines
pIC50: −log10 of the molar value.
endpoint: pIC50

Q: Sample C=C(C)C(CC=C(C)C)Cc1c2c(c(O)c3c1OC(c1ccc(O)cc1)C3c1cc(O)cc(O)c1)C(=O)CC(c1ccc(O)cc1O)O2 (stereo not shown) — what was its pIC50?
Ans: 4.51 to 5.00

====

Exercise: state measured IC50 for each of the compounds provided.
system: HCT116 cells; test: AlamarBlue cytotoxic assay, HCT116; assay type: cell-based; settings: HCT-116, human colon cancer HCT116 cells, 48 h, read-out: Cytotoxicity IC50 HCT116
Give bare numbers, in µM.

Look over these answered cases.
| compound | value_measured |
| --- | --- |
| COc1c(C2COc3cc(O)c(CC=C(C)C)c(O)c3C2=O)ccc(O)c1CC=C(C)C (centres unmarked) [Compound 1, isosophoranone] | 39.3 |
| C=C(C)C(CC=C(C)C)Cc1c2c(c(O)c3c1OC(c1ccc(O)cc1)C3c1cc(O)cc(O)c1)C(=O)CC(c1ccc(O)cc1O)O2 (centres unmarked) [Compound 4, alopecurone J] | 18 |
| C=C(C)[C@H](CC=C(C)C)Cc1c(O)cc(O)c2c1O[C@H](c1ccc(O)cc1O)CC2=O [Compound 2, sophoraflavanone G] | 54.4 |
| Oc1ccc(C2Oc3cc(O)cc(O)c3C2O)cc1 (centres unmarked) [Compound 3] | 54 |

Q: Sample CC(C)=CCc1c2c(c(O)c3c1O[C@@H](c1ccc(O)cc1)[C@@H]3c1cc(O)cc(O)c1)C(=O)C[C@@H](c1ccc(O)cc1O)O2 [Compound 5, alopecurone P] — what was its IC50?
Ans: 48.4
